This collection of values is drawn from patent US12319739.

Target: T1, endogenous cell surface human MSLN (human, UniProt Q13421 296-598)
T1 construct: whole, on cells; The cell line is named under assay; also called cell-surface MSLN on NCI-H226, OVCAR-3 and AsPC-1 cells
T1 sequence (Q13421 other isoform, or with tags, fused parts or gaps limits assumed): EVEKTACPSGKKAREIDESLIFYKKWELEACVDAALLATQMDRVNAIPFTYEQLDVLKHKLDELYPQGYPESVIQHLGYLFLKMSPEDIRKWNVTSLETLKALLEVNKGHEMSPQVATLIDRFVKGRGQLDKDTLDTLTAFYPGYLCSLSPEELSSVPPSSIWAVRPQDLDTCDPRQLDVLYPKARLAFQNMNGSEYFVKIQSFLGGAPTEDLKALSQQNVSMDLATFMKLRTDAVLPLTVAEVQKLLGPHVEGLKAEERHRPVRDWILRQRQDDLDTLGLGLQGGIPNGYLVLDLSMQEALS
Assay: flow cytometry, NCI-H226 cells + 20 nM soluble MSLN
Experimental: To confirm binding to cell surface MSLN, mAb² listed in Table 9 were analysed for binding to endogenous cell surface MSLN on the human lung cancer cell line NCI-H226. In addition, and because MSLN can be found in blood in a shed soluble form, there is a risk that this circulating MSLN might affect exposure and ultimately potency of our mAb². […]

Binder	Emax (MFI)
FS22-172-003-AA/FS28-185 (bispecific antibody, human IgG1, kappa, L234A L235A, V domains shown, IgG1 mAb^2 with LALA; also called FS28-185 in CD137 mAb^2 format) VH: EVQLLESGGGLVQPGGSLRLSCAASGFTFTTSAMSWVRQAPGKGLEWVSRINPYEGETNYADSVKGRFTISRDNSKNTLYLQMNSLRAEDTAVYYCARGWSIATYYKSAMDYWGQGTLVTVSS VL: EIVLTQSPGTLSLSPGERATLSCRASQSVSSSYLAWYQQKPGQAPRLLIYGASSRATGIPDRFSGSGSGTDFTLTISRLEPEDFAVYYCQQSSYSAPVTFGQGTKVEIKR	4930
FS22-172-003-AA/FS28-256-012 (bispecific antibody, human IgG1, kappa, L234A L235A, V domains shown, IgG1 mAb^2 with LALA) VH: EVQLLESGGGLVQPGGSLRLSCAASGFTFTHTYMSWVRQAPGKGLEWVSNISPTYSTTNYADSVKGRFTISRDNNKNTLYLQMNSLRAEDTAVYYCARYNAYHAALDYWGQGTLVTVSS VL: EIVLTQSPGTLSLSPGERATLSCRASQSVSSSYLAWYQQKPGQAPRLLIYGASSRATGIPDRFSGSGSGTDFTLTISRLEPEDFAVYYCQQSYYYPITFGQGTKVEIKR	486000
FS22-172-003-AA/FS28-256-021 (bispecific antibody, human IgG1, kappa, L234A L235A, V domains shown, IgG1 mAb^2 with LALA) VH: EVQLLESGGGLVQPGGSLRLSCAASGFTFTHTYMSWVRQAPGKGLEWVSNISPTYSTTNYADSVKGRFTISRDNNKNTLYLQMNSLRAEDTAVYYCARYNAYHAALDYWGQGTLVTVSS VL: EIVLTQSPGTLSLSPGERATLSCRASQSVSSSYLAWYQQKPGQAPRLLIYGASSRATGIPDRFSGSGSGTDFTLTISRLEPEDFAVYYCQQHNQYPNTFGQGTKVEIKR	774000
FS22-172-003-AA/FS28-024-052 (bispecific antibody, human IgG1, kappa, L234A L235A, V domains shown, IgG1 mAb^2 with LALA) VH: EVQLLESGGGLVQPGGSLRLSCAASGFTLSYSSMSWVRQAPGKGLEWVSFITPSTGYTHYADSVKGRFTISRDNSKNTLYLQMNSLRAEDTAVYYCARRALLFDYWGQGTLVTVSS VL: EIVLTQSPGTLSLSPGERATLSCRASQSVSSSYLAWYQQKPGQAPRLLIYGASSRATGIPDRFSGSGSGTDFTLTISRLEPEDFAVYYCQQASSYPLTFGQGTKVEIKR	799000
FS22-172-003-AA/FS28-256-014 (bispecific antibody, human IgG1, kappa, L234A L235A, V domains shown, IgG1 mAb^2 with LALA) VH: EVQLLESGGGLVQPGGSLRLSCAASGFTFTDTYMSWVRQAPGKGLEWVSNISPTYSTTNYADSVKGRFTISRDNSKNTLYLQMNSLRAEDTAVYYCARYNAYAAGLDYWGQGTLVTVSS VL: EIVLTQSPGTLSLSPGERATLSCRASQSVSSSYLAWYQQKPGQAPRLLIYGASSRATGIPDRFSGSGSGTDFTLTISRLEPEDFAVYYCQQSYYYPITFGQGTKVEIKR	514000
